The measurements presented in this section are drawn from patent US20240261417A1.

Below, each entry is listed with its recorded Dmax.
# measuredTarget: UniProt:Q07889
# Sequence (Q07889 1-1333): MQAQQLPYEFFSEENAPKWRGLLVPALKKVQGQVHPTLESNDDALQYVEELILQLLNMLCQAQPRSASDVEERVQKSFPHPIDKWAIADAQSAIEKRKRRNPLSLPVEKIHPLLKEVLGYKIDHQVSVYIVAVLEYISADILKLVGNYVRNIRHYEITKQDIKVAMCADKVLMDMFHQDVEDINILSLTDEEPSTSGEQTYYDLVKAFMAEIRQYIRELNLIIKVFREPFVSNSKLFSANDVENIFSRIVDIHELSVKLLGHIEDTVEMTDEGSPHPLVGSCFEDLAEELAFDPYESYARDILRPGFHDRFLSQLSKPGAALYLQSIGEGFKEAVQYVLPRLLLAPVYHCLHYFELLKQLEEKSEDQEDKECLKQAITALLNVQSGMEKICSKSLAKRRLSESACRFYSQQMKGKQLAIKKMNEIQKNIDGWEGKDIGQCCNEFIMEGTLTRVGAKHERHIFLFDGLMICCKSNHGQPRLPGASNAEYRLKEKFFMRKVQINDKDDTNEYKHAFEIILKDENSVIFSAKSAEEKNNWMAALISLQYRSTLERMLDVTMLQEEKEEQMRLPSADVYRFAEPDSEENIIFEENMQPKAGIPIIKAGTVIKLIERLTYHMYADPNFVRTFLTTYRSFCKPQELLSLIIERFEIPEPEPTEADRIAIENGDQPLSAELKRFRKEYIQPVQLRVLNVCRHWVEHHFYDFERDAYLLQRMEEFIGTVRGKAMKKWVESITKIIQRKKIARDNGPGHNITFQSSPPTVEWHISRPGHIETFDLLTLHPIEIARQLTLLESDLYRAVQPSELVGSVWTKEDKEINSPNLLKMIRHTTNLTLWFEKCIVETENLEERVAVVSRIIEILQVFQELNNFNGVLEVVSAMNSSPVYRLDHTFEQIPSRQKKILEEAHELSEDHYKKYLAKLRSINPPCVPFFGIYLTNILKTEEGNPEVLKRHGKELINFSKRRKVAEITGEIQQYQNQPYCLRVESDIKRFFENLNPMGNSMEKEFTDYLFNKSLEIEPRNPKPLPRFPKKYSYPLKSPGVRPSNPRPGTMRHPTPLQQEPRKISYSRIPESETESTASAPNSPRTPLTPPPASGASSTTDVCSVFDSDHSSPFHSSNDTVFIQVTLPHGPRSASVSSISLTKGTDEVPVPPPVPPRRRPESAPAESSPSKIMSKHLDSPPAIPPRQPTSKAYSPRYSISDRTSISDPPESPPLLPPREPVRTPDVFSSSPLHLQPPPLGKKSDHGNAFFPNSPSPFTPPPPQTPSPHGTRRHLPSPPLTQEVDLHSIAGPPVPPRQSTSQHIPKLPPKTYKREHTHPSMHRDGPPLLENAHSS
# assay: SOS1 degradation assay (Western blot), NCI-H358 cells
# Format: cell-based
# Parameters: The degradation of SOS1 by the compounds was investigated on KRAS G12C mutant human non-small cell lung cancer cells NCI-H358; host or cells: NCI-H358 (human cancer cell lines)
# conditionContext: SOS1 degradation, NCI-H358 cells, 24 h, Western blot; read-out: NCI-H358 (G12C) Dmax
# Description: The specific procedures were as follows: 0.95 mL of cells were seeded into each well of a 24-well cell culture plate to achieve a cell density of 5×10^5 cells/well; the cell plate was incubated in an incubator at 37° C. with 5% CO2 overnight. […] The concentration of total protein in the cell lysate supernatant was determined using the BCA Protein Quantification Kit (Tiangen, PA115-02). The concentration of total protein in the cell lysate was determined by BCA. […]

These recorded examples may help you get a feel for the data.
COc1cc2nc(C)nc(N[C@H](C)c3cc(-c4c(Cl)cccc4CN(C)C)cs3)c2cc1[C@H]1CC[C@H](C(=O)N2CCC(COCC3CCN(C(=O)c4ccc(Cl)c(N5CCC(=O)NC5=O)c4)CC3)CC2)CC1 :: < 30%
COc1cc2nc(C)nc(N[C@H](C)c3cccc4c3CCS4(=O)=O)c2cc1[C@H]1CC[C@H](C(=O)N2CCN(CC3CCC4(CC3)CCN(C(=O)c3ccc(Cl)c(N5CCC(=O)NC5=O)c3)CC4)CC2)CC1 :: 50 to 80%
[2H]C1([2H])CC(OCC2CCN(C(=O)[C@H]3CC[C@H](c4cc5c(N[C@H](C)c6cc(N)cc(C(F)(F)F)c6)nc(C)nc5cc4OC)CC3)CC2)CC([2H])([2H])N1C(=O)c1ccc(Cl)c(N2CCC(=O)NC2=O)c1 :: 50 to 80%
COc1cc2nc(C)nc(N[C@H](C)c3cc(-c4ccccc4CN(C)C)cs3)c2cc1[C@H]1CC[C@H](C(=O)N2CCC(CCOCC3CCN(C(=O)c4ccc(Cl)c(N5CCC(=O)NC5=O)c4)CC3)CC2)CC1 :: 80 to 100%
COc1cc2nc(C)nc(N[C@H](C)c3cc(N)cc(C(F)(F)F)c3)c2cc1[C@H]1CC[C@H](C(=O)N2CCN(CC3CCC4(CC3)CCN(C(=O)c3ccc(Cl)c(N5CCC(=O)NC5=O)c3)CC4)CC2)CC1 :: 80 to 100%
COc1cc2nc(C)nc(N[C@H](C)c3cc(N)cc(C(F)(F)F)c3)c2cc1[C@H]1CC[C@H](C(=O)N2CCN(CC#CC3CCN(C(=O)c4ccc(Cl)c(N5CCC(=O)NC5=O)c4)CC3)CC2)CC1 :: < 30%

Exercise: Kindly state the measured Dmax obtained for "COc1cc2nc(C)nc(N[C@H](C)c3cc(N)cc(C(F)(F)F)c3)c2cc1[C@H]1CC[C@H](C(=O)N2CCN(CCC3CCN(C(=O)c4ccc(Cl)c(N5CCC(=O)NC5=O)c4)CC3)CC2)CC1" with UniProt:Q07889.
Key: 30 to 50%

Exercise: Now consider "COc1cc2nc(C)nc(N[C@H](C)c3cc(-c4c(Cl)cccc4CN(C)C)cs3)c2cc1[C@H]1CC[C@H](C(=O)N2CCN(CCC3CCC4(CC3)CCN(C(=O)c3ccc(Cl)c(N5CCC(=O)NC5=O)c3)CC4)CC2)CC1" and answer again.
Key: 80 to 100%

Exercise: Likewise for "COc1cc2nc(C)nc(N[C@H](C)c3cc(N)cc(C(F)(F)F)c3)c2cc1[C@H]1CC[C@H](C(=O)N2CCN(CCCOC3CCN(C(=O)c4ccc(Cl)c(N5CCC(=O)NC5=O)c4)CC3)CC2)CC1" ?
Key: 50 to 80%

Exercise: How about this compound: "COc1cc2nc(C)nc(N[C@H](C)c3cc(N)cc(C(F)(F)F)c3)c2cc1[C@H]1CC[C@H](C(=O)N2CCN(CCOCC3CCN(C(=O)c4ccc(Cl)c(N5CCC(=O)NC5=O)c4)CC3)CC2)CC1"
Key: 80 to 100%

Exercise: And "COc1cc2nc(C)nc(N[C@H](C)c3cc(N)cc(C(F)(F)F)c3)c2cc1[C@H]1CC[C@H](C(=O)N2CCN(CCC3CCC4(CC3)CCN(C(=O)c3ccc(Cl)c(N5CCC(=O)NC5=O)c3)CC4)CC2)CC1" ?
Key: 80 to 100%

Exercise: Try "COc1cc2nc(C)nc(N[C@H](C)c3cc(N)cc(C(F)(F)F)c3)c2cc1[C@H]1CC[C@H](C(=O)N(C)CC2CCC3(CC2)CCN(C(=O)c2ccc(Cl)c(N4CCC(=O)NC4=O)c2)CC3)CC1" next.
Key: < 30%
